# study target: E. coli RNase P holoenzyme (M1 P RNA + rnpA protein) (UniProt P0A7Y8)
# Sequence: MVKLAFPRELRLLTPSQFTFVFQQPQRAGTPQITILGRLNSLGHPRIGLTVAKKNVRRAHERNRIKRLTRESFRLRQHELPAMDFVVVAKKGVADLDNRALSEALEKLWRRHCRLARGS
# assay summary: relative kcat/Km (krel) vs genomic leader AAAGAU (relative (reference leader = 1)); higher = faster RNase P cleavage
# condition context: fraction of substrate reacted: ~26-29% (28.66% repeat 1, 26.4% repeat 2)
In all, about 4,100 sequences were measured (“relative kcat/Km (krel) vs genomic leader AAAGAU”: median about 1.7, highest 2% from about 6.5 on). The entries come from a sample that favours the highest values as a whole.
Listed sequences paired with reported relative kcat/Km
experimental readout: relative kcat/Km

> print(dat)
    sequence.text  experimental.readout  quantitative.result
 1         CTGTTA      relative kcat/Km                 2.19
 2         GCCTGC      relative kcat/Km                 4.68
 3         TTCTGC      relative kcat/Km                 8.28
 4         CCCTTG      relative kcat/Km                 1.42
 5         AAATCT      relative kcat/Km                  2.8
 6         GACACC      relative kcat/Km                 5.28
 7         TACAAC      relative kcat/Km                 7.11
 8         CTTAGC      relative kcat/Km                 3.62
 9         ACAACT      relative kcat/Km                 1.07
10         GGGTTC      relative kcat/Km                 0.82
11         AAACGA      relative kcat/Km                 2.21
12         GACAAC      relative kcat/Km                 6.93
13         GTCTGC      relative kcat/Km                 7.11
14         CCCTCT      relative kcat/Km                  3.9
15         TTCTGG      relative kcat/Km                 1.66
16         GACAGC      relative kcat/Km                 5.59
17         GTGTCG      relative kcat/Km                0.804
18         CGTCAA      relative kcat/Km                 5.08
19         TATACC      relative kcat/Km                 2.84
20         CTCTCA      relative kcat/Km                 5.72
21         AATTAC      relative kcat/Km                 5.32
22         TTCTGT      relative kcat/Km                 2.43
23         GGTAGG      relative kcat/Km                 1.74
24         GACCAC      relative kcat/Km                 5.22
25         GGCACA      relative kcat/Km                 2.08
26         TTCTCG      relative kcat/Km                 4.91
27         GTCTCA      relative kcat/Km                 7.71
28         GAGCAA      relative kcat/Km                 2.57
29         TTCTGA      relative kcat/Km                 7.63
30         GCGAGA      relative kcat/Km                 1.63
31         TCTCAC      relative kcat/Km                 6.16
32         GCCTGG      relative kcat/Km                0.776
33         CAGGAG      relative kcat/Km                0.626
34         ATCTTA      relative kcat/Km                 5.74
35         AATGTT      relative kcat/Km                 1.29
36         CCATCT      relative kcat/Km                 2.64
37         TCACAT      relative kcat/Km                 6.08
38         CTCTTT      relative kcat/Km                 7.01
39         CGTCAT      relative kcat/Km                 6.96
40         TCTTCA      relative kcat/Km                 2.49
41         CGGACA      relative kcat/Km                0.747
42         TATTAA      relative kcat/Km                 6.96
43         GCTGTC      relative kcat/Km                0.957
44         GGCGTC      relative kcat/Km                 1.36
45         CCGACA      relative kcat/Km                0.842
46         GACTGC      relative kcat/Km                 4.88
47         CAACAG      relative kcat/Km                    1
48         TCTACA      relative kcat/Km                 2.46
49         TTCAGA      relative kcat/Km                 10.5
50         TATTAC      relative kcat/Km                 7.86
51         CTCACA      relative kcat/Km                 5.85
52         CTAGTA      relative kcat/Km                 1.69
53         AATTAA      relative kcat/Km                 4.73
54         CACAAC      relative kcat/Km                 6.36
55         TCATGG      relative kcat/Km                0.476
56         AGTCAA      relative kcat/Km                 6.05
57         CCCTCC      relative kcat/Km                 4.21
58         TCCTCT      relative kcat/Km                 6.72
59         TATTCT      relative kcat/Km                 5.78
60         TTCTTC      relative kcat/Km                 7.95
61         ACACCT      relative kcat/Km                 2.53
62         TGCTTC      relative kcat/Km                 3.73
63         AAATTC      relative kcat/Km                 2.34
64         TGTCAG      relative kcat/Km                  3.3
65         AACAAC      relative kcat/Km                 4.45
66         GCCTTT      relative kcat/Km                 5.06
67         ATCTGA      relative kcat/Km                 6.19
68         AGTCAT      relative kcat/Km                 6.79
69         TCCTCA      relative kcat/Km                 6.64
70         CCCTCA      relative kcat/Km                 3.95
71         GGGCAT      relative kcat/Km                 2.18
72         GTCACA      relative kcat/Km                 7.01
73         CCTAGA      relative kcat/Km                 3.57
74         ACCCGT      relative kcat/Km                 1.96
75         CCTACG      relative kcat/Km                  1.4
76         ATCTGC      relative kcat/Km                 6.13
77         TACAAA      relative kcat/Km                 7.71
78         TGGTAG      relative kcat/Km                0.538
79         GTCTCT      relative kcat/Km                 7.16
80         CTCTGG      relative kcat/Km                 1.31
81         ATCTCA      relative kcat/Km                 6.06
82         TATTAT      relative kcat/Km                 9.03
83         GCGCAT      relative kcat/Km                 3.07
84         GGGGAT      relative kcat/Km                 1.93
85         GGTAAC      relative kcat/Km                 2.64
86         GCCTCA      relative kcat/Km                 5.77
87         CTCTTC      relative kcat/Km                 6.47
88         GTATCT      relative kcat/Km                 4.66
89         TCCTCC      relative kcat/Km                 6.57
90         GCTCGC      relative kcat/Km                 1.96
91         AACAAA      relative kcat/Km                 5.24
92         CACAAA      relative kcat/Km                 6.59
93         TGCAGA      relative kcat/Km                  2.7
94         AATTAT      relative kcat/Km                 5.76
95         GTCTTT      relative kcat/Km                 8.44
96         TCTGTT      relative kcat/Km                 1.89
97         TCCACT      relative kcat/Km                 4.72
